# conditionInfo: in methanol, 308.15 K
measuredParameter: solubility (mole fraction)
Please reply with the value in numeric form only.

[ask] Given `c1ccc2c(c1)Cc1ccccc1-2` , respond with its solubility (mole fraction).
[reply] 0.00528

###

# conditionInfo: in methanol, 278.15 K
measuredParameter: solubility (mole fraction)
Please reply with the value in numeric form only.

[ask] Given `c1ccc2c(c1)Cc1ccccc1-2` , respond with its solubility (mole fraction).
[reply] 0.00199

###

# conditionInfo: in methanol, 318.15 K
measuredParameter: solubility (mole fraction)
Please reply with the value in numeric form only.

[ask] Given `c1ccc2c(c1)Cc1ccccc1-2` , respond with its solubility (mole fraction).
[reply] 0.00709
